pKi: −log10 of the molar value.
Compiled record: pKi values for Glycogen synthase kinase-3 beta (Homo sapiens, UniProt P49841) across several sources.

The examples below pair each entry with its known result.
FC(F)(F)c1ccccc1-c1nc(Nc2n[nH]cc2-c2cccs2)c2ccccc2n1 | 4.70 to 6.00
CN1CCN(c2cc(Nc3cc(C4CC4)[nH]n3)nc(Sc3ccc4ccccc4c3)n2)CC1 | 6.00 to 7.00
Cc1cccc(C(CO)NC(=O)c2cc(-c3nc(NC(C)CO)ncc3C)c[nH]2)c1 (stereo not drawn) | 6.00 to 7.00

Return reported pKi values for all items listed beneath this line.
1. Cc1cnc2[nH]cc(-c3oncc3-c3cccc(F)c3F)c2c1
2. Nc1nonc1-c1nc2ccccc2n1CC(=O)Nc1ccc(F)c(F)c1
3. c1csc(CNc2nc(Nc3cc(C4CC4)[nH]n3)c3ccccc3n2)c1
4. Cc1cc(Nc2cc(-c3ccccc3)nc(Sc3ccc(NS(=O)(=O)C(C)C)cc3)n2)n[nH]1
5. Cc1cc(Nc2nc(C3CCCCC3)nc3ccccc23)[nH]n1

4.90 to 6.00
> 6.00
> 7.00
> 7.00
> 7.00

Return reported pKi values for all items listed beneath this line.
1. CC(=O)c1cccc(-c2nc(Nc3cc(C)n[nH]3)c3ccccc3n2)c1
2. O=[N+]([O-])c1ccc(-c2nc(Nc3n[nH]c4c(F)cc(F)cc34)c3ccccc3n2)c(Cl)c1
3. Fc1cc(F)c2[nH]nc(Nc3nc(-c4ccccc4Cl)nc4c3CCCCC4)c2c1
4. CN1C(C)(C)CC(Nc2cc(-n3cnc(Nc4ccccc4)n3)ccn2)CC1(C)C
5. Cc1nc(-c2ccc(Cl)cc2Cl)nc(NCCNc2ccc(C#N)cn2)c1C
6. CCc1c(C)nc(-c2ccccc2Cl)nc1Nc1n[nH]c2ncc(F)cc12
7. CCNc1ncc(C)c(-c2c[nH]c(C(=O)NC(CO)c3cccnc3)c2)n1 (stereo not drawn)

> 7.00
> 7.00
> 7.00
< 6.00
> 7.00
> 8.30
< 6.00

Return reported pKi values for all items listed beneath this line.
1. Fc1cccc2[nH]nc(Nc3nc(-c4ccccc4C(F)(F)F)nc4ccccc34)c12
2. Cc1cnc(Nc2ccc3c(c2)OCO3)nc1-c1c[nH]c(C(=O)NC(CO)c2ccccc2)c1 (stereo not drawn)
3. FC(F)(F)c1ccccc1-c1nc(Nc2n[nH]c3c(C(F)(F)F)cccc23)c2ccccc2n1

1: 4.70 to 6.00; 2: > 7.00; 3: 4.70 to 6.00
